experiment: First-in-human Part 2 multiple ascending dose q.d. blood and urine PK; assay type: in vivo; conditions: human, whole blood, oral, 25 mg, 25 mg qd, Day 12, blood; Mean ± SD; read-out: AUClast

- STRUCTURE AS SMILES: "C=CC(=O)N(C)CCOc1c(N)ncnc1-c1cc(F)cc(NC(=O)c2ccc(C3CC3)cc2F)c1C"
  MEASURE UNIT: "ng·h/mL"
  AUC(0-t): 114

###

experiment: First-in-human Part 2 multiple ascending dose q.d. blood and urine PK; assay type: in vivo; conditions: human, blood, oral, 25 mg, 25 mg qd, Day 1, blood; Mean ± SD; read-out: MRT
MEASURE NAME: MRT (h)

- STRUCTURE AS SMILES: "C=CC(=O)N(C)CCOc1c(N)ncnc1-c1cc(F)cc(NC(=O)c2ccc(C3CC3)cc2F)c1C"
  MEASURE NAME: "MRT"
  MEASURE UNIT: "h"
  MEASURED: 1.18
